These data points were gathered from patent US20150018376A1.

IC50 values by entry
biological target: KDR (GST-KDR(807-1356)) (Homo sapiens, UniProt P35968); construct: GST-KDR(807-1356), internally produced recombinant protein; GST (N); assay: KDR protein kinase activity, LanthaScreen TR-FRET; conditions: 2 μM ATP, 1 hour incubation
Sequence (P35968 807-1356): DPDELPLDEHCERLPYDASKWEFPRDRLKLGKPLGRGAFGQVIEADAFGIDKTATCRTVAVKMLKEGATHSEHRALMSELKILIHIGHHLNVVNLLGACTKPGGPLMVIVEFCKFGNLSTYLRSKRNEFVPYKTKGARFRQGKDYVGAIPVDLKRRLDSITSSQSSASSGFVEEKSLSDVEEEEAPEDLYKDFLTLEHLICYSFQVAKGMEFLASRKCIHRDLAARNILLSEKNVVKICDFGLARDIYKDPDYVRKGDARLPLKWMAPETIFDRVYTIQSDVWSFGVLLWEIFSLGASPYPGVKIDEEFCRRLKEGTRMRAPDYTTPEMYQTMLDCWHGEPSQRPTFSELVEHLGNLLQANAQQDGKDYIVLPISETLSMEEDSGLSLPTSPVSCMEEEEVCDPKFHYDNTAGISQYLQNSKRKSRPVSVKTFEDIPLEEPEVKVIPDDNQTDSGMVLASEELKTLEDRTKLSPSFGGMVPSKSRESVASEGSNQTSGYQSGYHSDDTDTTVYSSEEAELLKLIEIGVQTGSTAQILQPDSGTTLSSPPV

`Cn1nc(NC(=O)n2ccc3cc(Oc4cc(CN)ncn4)ccc32)cc1C(F)(F)F` has a reported IC50 of < 1 nM

Reported IC50 ( `Cn1nc(NC(=O)n2ccc3cc(Oc4cc(/C=[N+](/C)[O-])ncn4)ccc32)cc1C(F)(F)F` ) = < 1 nM

IC50 for `Cn1nc(NC(=O)n2ccc3cc(Oc4cc(C(N)=O)ncn4)ccc32)cc1C(F)(F)F` is 20 nM
